Read-out: Human Leukocyte Antigen - DR isotype (HLADR), HLA-DRA (gene 3122)
Measurement Notes: BSK_CASM3C_HLADR: BioMAP Diversity Plus: CASM3C Assay for Human Leukocyte Antigen - DR isotype (HLADR) Biomarker Activity (AID 2283043);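 also: cell-surface HLA-DR protein level quantified by ELISA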
Test Conditions: primary human coronary artery smooth muscle cells; actives raise or lower the signal
The source made the active and inactive calls. The calls were made as follows: active = hit-call score of the fitted dose curve at least 0.9, where 1 is the maximum; inactive = score below 0.9.
Lab note: assign the record to one of 1 (active), -1 (inactive)

Study these solved cases before continuing.
>  <Molecule>
CC(C)(C)c1cccc(C(C)(C)C)c1O

>  <Class Assignment>
-1

$$$$
>  <Molecule>
CCCCCCCCCCCCCCCS(=O)(=O)Oc1ccccc1

>  <Class Assignment>
-1

$$$$
>  <Molecule>
CCC(C)(C)C1CCC(O)CC1 (stereo not drawn)

>  <Class Assignment>
-1

$$$$
>  <Molecule>
Oc1cc2ccccc2c2ccccc12

>  <Class Assignment>
1

$$$$
>  <Molecule>
NC(=O)N(O)[C@@H]1C=C[C@H](Oc2cccc(Oc3ccc(F)cc3)c2)C1

>  <Class Assignment>
1

$$$$
>  <Molecule>
CC(C)CCCCCCOC(=O)CCCCC(=O)OCCCCCCC(C)C

>  <Class Assignment>
-1

$$$$
>  <Molecule>
CC[C@H](C)[C@@H](C(=O)O)n1sc2ccccc2c1=O

>  <Class Assignment>
-1

$$$$
>  <Molecule>
OC1CCC(C2CCCCC2)CC1 (stereo not drawn)

>  <Class Assignment>
-1

$$$$

Any idea what this test logged for "CC(C)(C)CC(C)(C)c1ccc(O)c(-n2nc3ccccc3n2)c1" ? 1

Name the outcome recorded for "CCCCCCCC(=O)O" in the assay. -1

Just curious, what result did "c1ccc2c(c1)Cc1ccccc1-2" get here? -1

Would you mind telling me which call this test gave "O=C(O)c1ccccc1C(c1ccc(O)cc1)c1ccc(O)cc1" ? -1

Lab log entry: CCc1ccc(CCOc2ccc(CC3SC(=O)NC3=O)cc2)nc1 (stereo not drawn) — outcome as called in the assay? -1

----------
System: human Constitutive Androstane Receptor (CAR), NR1I3 (gene 9970) (UniProt Q14994)
Sequence (Q14994 whole entry, looked up): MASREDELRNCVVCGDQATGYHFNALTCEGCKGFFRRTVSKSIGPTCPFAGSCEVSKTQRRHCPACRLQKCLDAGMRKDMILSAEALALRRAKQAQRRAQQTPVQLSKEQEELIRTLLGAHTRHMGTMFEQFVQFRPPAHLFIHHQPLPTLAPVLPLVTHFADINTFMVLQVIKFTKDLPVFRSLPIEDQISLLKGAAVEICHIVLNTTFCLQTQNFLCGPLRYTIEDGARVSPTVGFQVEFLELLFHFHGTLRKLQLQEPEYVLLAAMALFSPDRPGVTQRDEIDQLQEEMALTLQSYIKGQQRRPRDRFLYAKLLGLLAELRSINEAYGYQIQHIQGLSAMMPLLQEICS
Measurement Notes: NVS_NR_hCAR_Antagonist: NovaScreen (NVS) Nuclear Receptor Binding Assay for human Constitutive Androstane Receptor Antagonism (CAR) (AID 2283344)
Inconclusive results are not listed. Active and inactive are the calls of the source. Rule for the calls: active = hit-call score of the fitted dose curve at least 0.9, where 1 is the maximum; inconclusive = response in the unintended direction; inactive = score below 0.9.
Pick one: true for active, false for inactive

Use these answered entries as a reference point.
>  <Molecule>
COCC(C)OCC(C)O (centres undefined)

>  <Class Assignment>
false

$$$$
>  <Molecule>
CC[C@H](c1ccc(O)cc1)[C@@H](CC)c1ccc(O)cc1

>  <Class Assignment>
true

$$$$
>  <Molecule>
CCCCCCCCCCCCc1ccccc1S(=O)(=O)O

>  <Class Assignment>
true

$$$$

Shift focus to the following entry.
Check the results log: what was the call for "O=C(OCCOCCOC(=O)c1ccccc1)c1ccccc1" ? false

----------
System: Retinoic acid receptor RXR-alpha (Homo sapiens) (UniProt P19793)
Sequence (P19793 whole entry, looked up): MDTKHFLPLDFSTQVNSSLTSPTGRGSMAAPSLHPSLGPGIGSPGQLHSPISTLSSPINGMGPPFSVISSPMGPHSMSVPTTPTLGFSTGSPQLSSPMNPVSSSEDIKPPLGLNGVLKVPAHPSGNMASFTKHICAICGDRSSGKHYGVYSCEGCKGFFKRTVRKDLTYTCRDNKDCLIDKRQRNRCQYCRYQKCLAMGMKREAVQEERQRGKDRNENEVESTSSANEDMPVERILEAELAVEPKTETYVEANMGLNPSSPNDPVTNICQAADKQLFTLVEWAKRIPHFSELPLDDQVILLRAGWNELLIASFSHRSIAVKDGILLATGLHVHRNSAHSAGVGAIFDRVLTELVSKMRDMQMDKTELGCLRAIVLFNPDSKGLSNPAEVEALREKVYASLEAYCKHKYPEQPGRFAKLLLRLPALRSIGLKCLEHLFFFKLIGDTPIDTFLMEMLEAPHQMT
Measurement Notes: OT_NURR1_NURR1RXRa_1440: Odyssey Thera (OT) 24-hour HEK293T Protein Complementation Assay for Nurr1/retinoid X receptor (RXR) (AID 2283386)
Records with an inconclusive call do not appear. Activity calls are given as the source filed them. How the source made its calls: active means hit-call score of the fitted dose curve at least 0.9, where 1 is the maximum; inconclusive means response in the unintended direction; inactive means score below 0.9.
Assay Metric: outcome

>  <Smiles Data>
CN(C)C=O

>  <Result>
inactive

$$$$
>  <Smiles Data>
CCCOC(=O)c1ccc(O)cc1

>  <Result>
inactive

$$$$
>  <Smiles Data>
Nc1cccc2c(N)cccc12

>  <Result>
inactive

$$$$

----------
Measurement Notes: BSK_3C_TissueFactor: BioMAP Diversity Plus: 3C Assay for Tissue Factor Biomarker Activity (AID 2282997)
Test Conditions: BioMAP 3C HUVEC, tissue factor biomarker readout; actives raise or lower the signal
Activity calls are given as the source filed them. How the source made its calls: active means hit-call score of the fitted dose curve at least 0.9, where 1 is the maximum; inactive means score below 0.9.
Write down one outcome, taken from Y = active, N = inactive

Before answering, review these 5 worked examples.
>  <Compound>
CCN(CC)CCNc1ccc(CNC=O)c2sc3ccc(OC)cc3c(=O)c12

>  <Class Assignment>
Y

$$$$
>  <Compound>
CCCCCCCCOC(=O)CCCCCCCCC(=O)OCCCCCCCC

>  <Class Assignment>
N

$$$$
>  <Compound>
c1ccc2c(c1)ccc1ccccc12

>  <Class Assignment>
Y

$$$$
>  <Compound>
CC(=O)CC(C)(C)O

>  <Class Assignment>
N

$$$$
>  <Compound>
CCC(=C(c1ccc(O)cc1)c1ccc(OCCN(C)C)cc1)c1ccccc1

>  <Class Assignment>
Y

$$$$

Next:
Lab log entry: "CN1CCN(c2ccccc2/C=C2\SCCN(c3ccc(Cl)c(Cl)c3)C2=O)CC1" — outcome as called in the assay? Y

----------
Read-out: urokinase plasminogen activator (uPA), PLAU (gene 5328)
Measurement Notes: BSK_BE3C_uPA: BioMAP Diversity Plus: BE3C Assay for urokinase plasminogen activator (uPA) Biomarker Activity (AID 2283038)
Test Conditions: primary human bronchial epithelial cells; actives raise or lower the signal
Calls of active or inactive are those of the source. How the source made its calls: active means hit-call score of the fitted dose curve at least 0.9, where 1 is the maximum; inactive means score below 0.9.
Assay Metric: AC50

Previously resolved entries follow.
>  <Compound>
CCCOC(=O)c1ccc(O)cc1

>  <Assay Metric>
AC50

>  <Result>
inactive

$$$$
>  <Compound>
CC(C)(C)c1cc(C(C)(C)C)c(O)c(C(C)(C)C)c1

>  <Assay Metric>
AC50

>  <Result>
5.06 µM (active)

$$$$
>  <Compound>
CC(C)(C)c1ccc(O)c(C(C)(C)C)c1

>  <Assay Metric>
AC50

>  <Result>
30.7 µM (active)

$$$$
>  <Compound>
NC(=O)N(O)[C@@H]1C=C[C@H](Oc2cccc(Oc3ccc(F)cc3)c2)C1

>  <Assay Metric>
AC50

>  <Result>
inactive

$$$$
>  <Compound>
CCC(C)(C)C1CCC(O)CC1 (stereo unspecified)

>  <Assay Metric>
AC50

>  <Result>
inactive

$$$$

Name the recorded AC50 of the compound listed here: "c1ccc2c(c1)Cc1ccccc1-2" inactive

Provide measured AC50 value, entry: "O=[N+]([O-])c1ccc(O)cc1" inactive

# return recorded AC50 for input "CC(C)(C)c1cccc(C(C)(C)C)c1O" inactive

----------
Read-out: catalase (CAT), CAT (gene 847)
Measurement Notes: LTEA_HepaRG_CAT: Life Technologies and Expression Analysis (LTEA) Assay for catalase (CAT) using HepaRG (AID 2283452)
Test Conditions: mRNA level, 48 h; actives raise or lower the signal
Active and inactive are the calls of the source. Rule for the calls: active = hit-call score of the fitted dose curve at least 0.9, where 1 is the maximum; inactive = score below 0.9.
Assay Metric: AC50

# example entries with known answers
>  <Compound>
CCC(=C(c1ccc(O)cc1)c1ccc(OCCN(C)C)cc1)c1ccccc1

>  <AC50>
inactive

$$$$
>  <Compound>
CCCCC(CC)COC(=O)CCCCC(=O)OCC(CC)CCCC (configuration not stated)

>  <AC50>
inactive

$$$$
>  <Compound>
CN1CCC[C@H]1c1cccnc1

>  <AC50>
inactive

$$$$
>  <Compound>
Cc1cc(C)c(O)c(C)c1

>  <AC50>
inactive

$$$$
>  <Compound>
CC(C)CCCCCCOC(=O)CCCCC(=O)OCCCCCCC(C)C

>  <AC50>
inactive

$$$$

// next entry
Give AC50 for the following compound: "COc1ccc([N+](=O)[O-])cc1N" inactive

----------
Read-out: Cytochrome P450 (CYP1A1), CYP1A1 (gene 1543)
Measurement Notes: LTEA_HepaRG_CYP1A1: Life Technologies and Expression Analysis (LTEA) Assay for Cytochrome P450 (CYP1A1) using HepaRG (AID 2283454)
Test Conditions: mRNA level, 48 h; actives raise or lower the signal
The source made the active and inactive calls. Rule for the calls: active = hit-call score of the fitted dose curve at least 0.9, where 1 is the maximum; inactive = score below 0.9.
Please reply with one of these outcomes: T for active, F for inactive

Reference set (2 entries):
>  <Molecule>
Nc1cccc2c(N)cccc12

>  <Class Assignment>
T

$$$$
>  <Molecule>
Cc1oc(-c2ccccc2)nc1CCOc1ccc(C[C@H](Nc2ccccc2C(=O)c2ccccc2)C(=O)O)cc1

>  <Class Assignment>
T

$$$$

Status in this test for "CCCOC(=O)c1ccc(O)cc1" ? F

Please share the test call associated with "CN1CCC[C@H]1c1cccnc1" . T

Entry "Oc1cccc(O)c1" : call = ? F

Answer briefly: the call reported for "CC[C@H](c1ccc(O)cc1)[C@@H](CC)c1ccc(O)cc1" in this assay. F

So what was the verdict on "CC(C)(C)c1ccc(O)c(C(C)(C)C)c1" in this test? F

Which outcome was entered for the molecule "CN1CCN(c2ccccc2/C=C2\SCCN(c3ccc(Cl)c(Cl)c3)C2=O)CC1" in this test? T

Field: outcome | Entry: "COC(=O)CCCCC(=O)OC" F

GET /call?item= CCC(C)(C)C1CCC(O)CC1 (stereo not drawn) returns the recorded outcome of this test. F

Kindly provide the recorded test outcome for the following molecule: "CC1=C(/C=C/C(C)=C/C=C/C(C)=C/C(=O)O)C(C)(C)CCC1" T

Outcome? "CC(C)(C)CC(C)(C)c1ccc(O)c(-n2nc3ccccc3n2)c1" T

In this assay, the call recorded for "C=C(C)C(=O)OCCC(F)(F)C(F)(F)C(F)(F)C(F)(F)C(F)(F)C(F)(F)F" was what? T
